Taken from patent US8691846B2.

Target: human orexin-2 (hOX2) receptors (Homo sapiens, UniProt O43614)
Construct: expressed in transfected cells
Sequence (O43614 whole entry): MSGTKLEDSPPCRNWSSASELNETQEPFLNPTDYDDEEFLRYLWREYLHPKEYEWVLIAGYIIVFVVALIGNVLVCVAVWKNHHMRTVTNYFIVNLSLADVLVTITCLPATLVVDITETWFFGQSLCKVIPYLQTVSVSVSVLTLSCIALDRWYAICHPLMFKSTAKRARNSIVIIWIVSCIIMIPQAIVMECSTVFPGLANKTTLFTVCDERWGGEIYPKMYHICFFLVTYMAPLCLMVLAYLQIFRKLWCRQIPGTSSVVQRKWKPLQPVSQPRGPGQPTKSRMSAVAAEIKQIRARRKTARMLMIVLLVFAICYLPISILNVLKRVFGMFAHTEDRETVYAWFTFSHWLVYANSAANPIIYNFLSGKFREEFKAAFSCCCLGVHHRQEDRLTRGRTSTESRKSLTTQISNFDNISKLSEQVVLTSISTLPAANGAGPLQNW
Assay: Intracellular Ca2+ mobilization assay (FLIPR), antagonism of orexin-A in CHO(dHFr-) cells expressing hOX2
Format: cell-based
Conditions: CHO(dHFr-)-OX2R cells; orexin-A at EC80 as agonist; Kb=IC50/(1+[A]/EC50); read-out: Kb (μM) OX2R (human)
Overview of reported Kb across a group of compounds:
result_type: Kb (µM)

1) COc1ccccc1S(=O)(=O)N1CCCC(C(=O)N2CCCCC2c2ccccc2)C1 (stereo not shown): 0.0226
2) O=C(C1CCCN(S(=O)(=O)c2ccccc2Cl)C1)N1CCCC1c1ccccc1Cl (stereo not shown): 0.0113
3) COc1ccccc1S(=O)(=O)N1CCCC(C(=O)N2CCCC2c2ccccc2)C1 (stereo not shown): 0.0053
4) COc1ccc(Cl)cc1S(=O)(=O)N1CCCC(C(=O)N2CCCC2c2ccccc2)C1 (stereo not shown): 0.0138

###

Target: human orexin-2 (hOX2) receptors (Homo sapiens, UniProt O43614)
Construct: expressed in transfected cells
Experiment: Intracellular Ca2+ mobilization assay (FLIPR), antagonism of orexin-A in CHO(dHFr-) cells expressing hOX2
Format: cell-based
Settings: CHO(dHFr-)-OX2R cells; orexin-A at EC80 as agonist; Kb=IC50/(1+[A]/EC50); read-out: Kb (μM) OX2R (human)
Experimental: Intracellular Ca^2+ Mobilization Assay […] Kb values were calculated according to the following equation Kb=IC50/(1+[A]/EC50) where A is the concentration of agonist added which is very close to agonist EC80 value, and IC50 and EC50 values were derived from the antagonist inhibition and orexin-A or B agonist curves, respectively.
Parameter Kb: see the listing below.
result_type: Kb (µM)

1) O=C(C1CCCN(S(=O)(=O)c2ccccc2Cl)C1)N1CCCC1c1ccc(F)cc1 (stereo not shown): 0.0788
2) O=C(C1CCCN(S(=O)(=O)c2cccc(Cl)c2)C1)N1CCCC1c1ccccc1 (stereo not shown): 0.0219
3) O=C(C1CCCN(S(=O)(=O)c2ccccc2Cl)C1)N1CCCC1c1ccccc1 (stereo not shown): 0.02
4) COc1ccc(Cl)cc1S(=O)(=O)N1CCCC(C(=O)N2CCCCC2c2ccccc2)C1 (stereo not shown): 0.0592
